Biological target: T1, EsCas13d, nuclease-dead (Eubacterium siraeum, UniProt B0MS50, R295A;H300A;R849A;H854A)
T1 sequence: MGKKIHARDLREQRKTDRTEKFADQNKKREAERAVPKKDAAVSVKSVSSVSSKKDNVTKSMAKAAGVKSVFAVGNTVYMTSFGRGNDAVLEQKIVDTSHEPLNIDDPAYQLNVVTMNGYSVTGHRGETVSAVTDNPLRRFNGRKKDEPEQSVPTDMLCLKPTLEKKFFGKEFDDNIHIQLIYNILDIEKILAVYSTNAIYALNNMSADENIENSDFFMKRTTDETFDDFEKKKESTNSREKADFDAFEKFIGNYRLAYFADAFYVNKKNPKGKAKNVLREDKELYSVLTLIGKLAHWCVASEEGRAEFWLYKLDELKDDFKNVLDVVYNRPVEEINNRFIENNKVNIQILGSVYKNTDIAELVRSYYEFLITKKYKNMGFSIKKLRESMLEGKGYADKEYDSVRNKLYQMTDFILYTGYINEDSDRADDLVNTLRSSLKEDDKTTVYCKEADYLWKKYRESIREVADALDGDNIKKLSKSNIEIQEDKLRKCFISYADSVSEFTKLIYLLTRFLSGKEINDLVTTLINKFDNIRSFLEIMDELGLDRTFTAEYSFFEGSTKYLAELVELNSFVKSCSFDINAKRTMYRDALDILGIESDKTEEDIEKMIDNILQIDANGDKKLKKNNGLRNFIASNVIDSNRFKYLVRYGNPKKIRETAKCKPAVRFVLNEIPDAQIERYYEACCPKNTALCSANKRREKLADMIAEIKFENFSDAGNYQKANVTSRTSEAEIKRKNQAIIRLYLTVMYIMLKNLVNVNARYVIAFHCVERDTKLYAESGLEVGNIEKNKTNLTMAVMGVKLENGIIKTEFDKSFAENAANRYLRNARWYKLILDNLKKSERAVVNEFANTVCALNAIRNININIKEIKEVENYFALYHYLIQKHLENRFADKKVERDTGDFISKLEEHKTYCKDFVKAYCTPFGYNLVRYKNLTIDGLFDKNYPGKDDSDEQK
Assay: crRNA (strand 1, pre-loaded); Mg2+; 40 mM Tris-HCl pH 7.5, 150 mM NaCl, 6 mM MgCl2, 1 mM DTT, 0.1% Tween-20, 0.2 mg/ml BSA; 25 C; 10 min per concentration, then washed
Conditions: tags: His6-TwinStrep-SUMO cleaved; N-terminal SNAP kept (SNAP-Surface 488); label: 3' end held by stalled T7 RNA polymerase
propertyLabel: pKd
Quick note: pKd means taking -log10 of the concentration in moles per liter.

>>> assayresult("target 1 insU 3' of 20,insU 3' of 5 (mixed) RNA 1: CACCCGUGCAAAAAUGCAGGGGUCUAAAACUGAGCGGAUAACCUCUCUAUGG RNA 2: GGGAAUGGAUCCACAUCUACGAAUUCGUACCAUUAGAGAGGUUAUCCGUCUCACCGAGAUCGGAAGAGCACACGU")
7.62

Value of measured pKd for the entry target 3 G4A,A11C (mixed) RNA 1: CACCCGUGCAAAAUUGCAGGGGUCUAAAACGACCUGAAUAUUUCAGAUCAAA RNA 2: GGGAAUGGAUCCACAUCUACGAAUUCGUUUUUGAUCUGAACUAUUCAAGUCUGCAGAUCGGAAGAGCACACGU : 7.31
